# Target: Steroidogenic factor 1 (Homo sapiens) (UniProt Q13285)
# Sequence (Q13285 whole entry, looked up, the tested form may be a part): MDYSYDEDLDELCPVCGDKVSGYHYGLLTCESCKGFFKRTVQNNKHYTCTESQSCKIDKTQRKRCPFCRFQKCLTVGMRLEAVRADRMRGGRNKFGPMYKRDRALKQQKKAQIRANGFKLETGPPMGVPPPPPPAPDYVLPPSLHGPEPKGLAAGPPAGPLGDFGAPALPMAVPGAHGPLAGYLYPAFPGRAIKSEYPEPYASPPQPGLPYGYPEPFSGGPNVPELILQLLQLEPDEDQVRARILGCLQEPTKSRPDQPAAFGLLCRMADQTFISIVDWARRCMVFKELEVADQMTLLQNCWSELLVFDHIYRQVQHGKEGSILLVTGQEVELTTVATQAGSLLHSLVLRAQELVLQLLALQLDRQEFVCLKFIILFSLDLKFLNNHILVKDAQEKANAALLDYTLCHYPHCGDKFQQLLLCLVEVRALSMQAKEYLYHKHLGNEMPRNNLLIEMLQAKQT
# Protocol: SF-1 inhibitors in Gal4 reporter counter-screen, dose response, counter-screen for RORA inhibitor project, cell-based, CHO-K1, Gal4-SF-1 LBD, luciferase luminescence (AID 611)
# Condition Info: CHO-K1 Gal4-SF-1 LBD luciferase reporter
Calls of active or inactive are those of the source.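 The calls were made as follows: active = IC50 at or below 10 micromolar, estimated by hand when no curve fit or under half inhibition at top dose; inactive = IC50 above 10 micromolar.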
Bench note: report the call from TRUE (active), FALSE (inactive)

Example results:
>  <Compound>
O=C(/C=C\Nc1ccc2c(c1)OCO2)c1ccccn1

>  <Qualitative Label>
TRUE

$$$$
>  <Compound>
COc1cc(/C=N/O)ccc1OCc1ccc(C(=O)O)cc1

>  <Qualitative Label>
TRUE

$$$$
>  <Compound>
O=S(=O)(c1ccc2c(c1)C(=NO)c1cc(S(=O)(=O)N3CCCCC3)ccc1-2)N1CCCCC1

>  <Qualitative Label>
TRUE

$$$$

Please indicate how the test categorized CC(=O)CC1OC(=O)C(Br)=C1NCc1ccccc1 (centres undefined) .
FALSE

How did this test come out for "Cc1ccc(C(=O)/C=C/Nc2ccccn2)cc1" ?
TRUE

Test call for this compound, please: COC(=O)C1=C(CN2CCCc3ccccc32)NC(=O)NC1c1ccc(F)cc1 (centres undefined)
TRUE

What classification did "O=C(/C=C\Nc1ccccn1)c1ccc(Cl)cc1" end up with in this test?
TRUE

Give the logged outcome of this assay for the following compound: "O=C(O)CCCCCN1C(=O)CSC1=S"
FALSE

Please state the recorded outcome for this compound: "Cn1nc(CC(=O)Nc2ccc(N3CCN(C(=O)OC(C)(C)C)CC3)cc2)c2ccccc2c1=O"
TRUE
